Each entry below carries its reported pIC50.
Target: MRGPRX2 (Homo sapiens, UniProt Q96LB1)
Sequence (Q96LB1 whole entry): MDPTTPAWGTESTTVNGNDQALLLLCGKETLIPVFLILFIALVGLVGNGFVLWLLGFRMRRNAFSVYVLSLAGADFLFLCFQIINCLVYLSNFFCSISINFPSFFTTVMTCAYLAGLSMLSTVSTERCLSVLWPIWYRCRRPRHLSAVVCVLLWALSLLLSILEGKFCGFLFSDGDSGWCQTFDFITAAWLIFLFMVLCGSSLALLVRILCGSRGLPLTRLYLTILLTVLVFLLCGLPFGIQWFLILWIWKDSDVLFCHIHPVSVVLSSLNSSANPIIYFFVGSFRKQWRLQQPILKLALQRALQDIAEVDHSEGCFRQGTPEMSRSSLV
Experiment: MRGPRX2 IP1 HTRF assay
Format: cell-based
Parameters: host or cells: CHO-K1
Conditions: CHO-K1 cells stably expressing human MRGPRX2; IP1 accumulation; agonist Cortistatin 14 1 μM
Text: Example B: MRGPRX2 IP1 HTRF Assay This assay measures compound inhibition of myo-Inositol 1 phosphate (IP1) accumulation in CHO-K1 cells. […] For the HTRF IP1 determination, an IP-One GqKit (Perkin Elmer Cisbio, Waltham, MA), which includes all reagents and buffers in this protocol, was used. […] Plates were read on the PHERAstar microplate reader (BMG Labtech Cary, NC) to determine the HTRF ratio of the acceptor and donor emission signals. […]
pIC50: −log10 of the molar value.

// known answers, use as guide
>>> df
                                   molecule                         subject_of_test   assay_result
0  CCc1cc(NCC2(c3ccc(F)cc3)CN(C(N)=O)C2)n2nc(C(F)(F)F)cc2n1  MRGPRX2 (Homo sapiens, UniProt Q96LB1)  7.00 to 10.00
1  NS(=O)(=O)N1CC(CNc2cc(C(F)(F)F)nc3cc(C4CC4)nn23)(n2cccn2)C1  MRGPRX2 (Homo sapiens, UniProt Q96LB1)   6.00 to 7.00
2  CC(=O)N1CCC(CNc2cccc3nc(C(F)(F)F)cn23)(c2ccccc2)CC1  MRGPRX2 (Homo sapiens, UniProt Q96LB1)  7.00 to 10.00
3  CNC(=O)N1CCC(CNc2cc(Cl)cc3nc(C(F)(F)F)cn23)(c2ccccc2)CC1  MRGPRX2 (Homo sapiens, UniProt Q96LB1)  7.00 to 10.00
4  NS(=O)(=O)N1CC(CNc2cc(C(F)(F)F)nc3cc(C(F)(F)F)nn23)(c2ccc(F)cc2)C1  MRGPRX2 (Homo sapiens, UniProt Q96LB1)  7.00 to 10.00

The molecule identified as CC(C)(O)CNC1CCC(CNc2cc(C(F)(F)F)nc3cc(C(F)(F)F)nn23)(c2ccc(F)cc2)CC1 (centres unmarked) registered its pIC50 at 7.00 to 10.00

Documented pIC50 of CNC(=O)N1CCC(CNc2cccc3nc(C(F)(F)F)nn23)(c2ccccc2)CC1 : 7.00 to 10.00

Measured pIC50, CNC(=O)N1CCC(CNc2cccc3nc(C(C)C)cn23)(c2ccccc2)CC1 : 6.00 to 7.00

====

pIC50 reference
Molecular target: UniProtKB Q96LB1
Experiment: MRGPRX2 IP1 HTRF assay
Format: cell-based
Set-up: host or cells: CHO-K1
Details: CHO-K1 cells stably expressing human MRGPRX2; IP1 accumulation; agonist Cortistatin 14 1 μM
pIC50: −log10 of the molar value.

Some solved entries appear below for comparison.
                                item_smiles   subject_of_test  measurement_kind   assay_result
0  [2H]C([2H])([2H])C([2H])([2H])c1cc(NCC2(c3ccc(F)cc3)CN(C(=O)N[C@H]3CC[C@H](O)CC3)C2)n2nc(C(F)(F)F)cc2n1  UniProtKB Q96LB1             pIC50  7.00 to 10.00
1  O=C(N[C@H]1CC[C@@H]1O)N1CC(CNc2cc(C(F)(F)F)nc3cc(C(F)(F)F)nn23)(c2ccc(F)cc2)C1  UniProtKB Q96LB1             pIC50  7.00 to 10.00
2  [2H]C([2H])([2H])C([2H])([2H])c1cc(NCC2(c3ccc(F)cc3)CN(C(N)=O)C2)n2nc(C(F)(F)F)cc2n1  UniProtKB Q96LB1             pIC50  7.00 to 10.00
3  NC(=O)N1CC(CNc2cc(Cl)nc3cc(C(F)(F)F)nn23)(c2ccc(F)cc2)C1  UniProtKB Q96LB1             pIC50  7.00 to 10.00
4  [2H]C([2H])([2H])C([2H])([2H])c1cc(NCC2(c3ccc(F)cc3)CN(C(=O)N[C@@H]3CC[C@@H](O)C3)C2)n2nc(C(F)(F)F)cc2n1  UniProtKB Q96LB1             pIC50  7.00 to 10.00

Entry N#CCC(=O)N1CCC(CNc2cccc3nc(C(F)(F)F)cn23)(c2ccc(F)cn2)CC1 — recorded pIC50 = 6.00 to 7.00

The measured pIC50 associated with [2H]C([2H])([2H])NC(=O)N1CC(CNc2cccc3nc(C(F)(F)F)nn23)(c2ccc(F)cc2)C1 reads 7.00 to 10.00
